# TARGET OF ASSAY: Human DR5-ECD long form polypeptide (human)
# PROCEDURE DETAILS: phage competition ELISA (Comp/DR5 ECD)
In this section, each of the binders is paired with its reported IC50.
Field format: number, assumed nM, no unit text.

[[record]]
binder = "GEACLTSCSRLR (phage-displayed) [V3A]"
value_reported = 9.8

[[record]]
binder = "GEVCLTTCSRIR (phage-displayed) [LB933]"
value_reported = 23.8


Kindly note the recorded IC50 for GEVCLTSCSALR (phage-displayed) [R10A] , which is 9.8

Kindly note the recorded IC50 for CVAMTTCEKLRLCQSL (phage-displayed) [2Hd7-7] , which is 6.9

Kindly note the recorded IC50 for GEVCLTSCSRIR (displayed on phage) [LB938] , which is 11.9

Kindly note the recorded IC50 for CVAMTTCDKLRECMAI (phage-displayed) [2Hd7-3] , which is 49

Kindly note the recorded IC50 for EVCMTSCEKLM (phage-displayed) [LB848] , which is 29400

Kindly note the recorded IC50 for GEVCLTSCARLR (phage-displayed) [S9A] , which is 12.7

Kindly note the recorded IC50 for RLPGEVCLTSCERLL (phage-displayed) [871-4-S3] , which is 149

Kindly note the recorded IC50 for EVCMTSCDRLKQAFLL (phage-displayed) [2H9-15] , which is 78.4

Kindly note the recorded IC50 for GEVCLTECSKLT (phage-displayed) [LB963] , which is 11.8
